This collection of values is drawn from patent US5698411A.

# Test system: granulocytes
# test description: peptidase activity in leukemia and non-leukemia patients, granulocytes (Table 6C)
# Assay type: cell-based, human
# Parameters: unit not given here
# reported conditions: N191 normal
# enzyme activity, Grans per entry

| compound | reading |
| --- | --- |
| C[C@H](N)C(=O)Nc1ccc2c(c1)Oc1cc(NC(=O)[C@H](C)N)ccc1C21OC(=O)c2ccccc21 | 177.32 |
| NC(=O)CC[C@H](N)C(=O)N[C@@H](CO)C(=O)Nc1ccc2c(c1)Oc1cc(NC(=O)[C@H](CO)NC(=O)[C@@H](N)CCC(N)=O)ccc1C21OC(=O)c2ccccc21 [QS, (H-L-Gln--Ser)2 Rho 110 .2TFA] | 0.19 |

Using the record for NCC(=O)N1CCC[C@H]1C(=O)Nc1ccc2c(c1)Oc1cc(NC(=O)[C@@H]3CCCN3C(=O)CN)ccc1C21OC(=O)c2ccccc21 [GP, (H-Gly--Pro)2 Rho .2TFA] , report its enzyme activity, Grans. 11.20

###

# System: lymphocytes
# test description: peptidase activity in leukemia and non-leukemia patients, lymphocytes (Table 6C)
# Assay type: cell-based, human
# Set-up: unit not given here
# reported conditions: J4 12/2/91 A L
Class met: enzyme activity, Lymphs at least 0.3. Class not met: enzyme activity, Lymphs below 0.3.

| molecule | class label |
| --- | --- |
| NC(=O)CC[C@H](N)C(=O)N[C@@H](CO)C(=O)Nc1ccc2c(c1)Oc1cc(NC(=O)[C@H](CO)NC(=O)[C@@H](N)CCC(N)=O)ccc1C21OC(=O)c2ccccc21 [QS, (H-L-Gln--Ser)2 Rho 110 .2TFA] | not met |
| C[C@@H](O)[C@H](N)C(=O)N1CCC[C@H]1C(=O)Nc1ccc2c(c1)Oc1cc(NC(=O)[C@@H]3CCCN3C(=O)[C@@H](N)[C@@H](C)O)ccc1C21OC(=O)c2ccccc21 [TP, (H-L-Thr--Pro)2 Rho 110 .2TFA] | met |
| CC(C)C[C@H](N)C(=O)NCC(=O)Nc1ccc2c(c1)Oc1cc(NC(=O)CNC(=O)[C@@H](N)CC(C)C)ccc1C21OC(=O)c2ccccc21 | not met |

Check this molecule for enzyme activity, Lymphs at or above 0.3: C[C@H](N)C(=O)Nc1ccc2c(c1)Oc1cc(NC(=O)[C@H](C)N)ccc1C21OC(=O)c2ccccc21 met

Another molecule to look at: O=C1OC2(c3ccc(NC(=O)[C@@H]4CCCN4)cc3Oc3cc(NC(=O)[C@@H]4CCCN4)ccc32)c2ccccc21 [PRO, (H-L-Pro)2 --Rho 110 .2TFA] not met

Next up: NCC(=O)N1CCC[C@H]1C(=O)Nc1ccc2c(c1)Oc1cc(NC(=O)[C@@H]3CCCN3C(=O)CN)ccc1C21OC(=O)c2ccccc21 [GP, (H-Gly--Pro)2 Rho .2TFA] met

Quick one: CC(C)[C@H](N)C(=O)N[C@@H](CO)C(=O)Nc1ccc2c(c1)Oc1cc(NC(=O)[C@H](CO)NC(=O)[C@@H](N)C(C)C)ccc1C21OC(=O)c2ccccc21 [VS, (H-L-Val--Ser)2 Rho 110 .2TFA] not met

###

# System: granulocytes
# test description: peptidase activity in leukemia and non-leukemia patients, granulocytes (Table 6C)
# Format: cell-based, human
# Design: unit not given here
# reported conditions: N199 normal
# Source text: Artificial intelligence was used to analyze data of cellular enzyme functions, and determine normal and disease states. Peptidases were used to distinguish leukemia from non-leukemia (output pattern). For input patterns lymphocyte and granulocyte cell types were used with aminopeptidases, cathepsins and dipeptidylpeptidase enzyme activities. […]
endpoint label: enzyme activity, Grans
The reply should be a number, written without any unit.

Observe how each entry below is paired with its result.
| molecule | enzyme activity, Grans |
| --- | --- |
| NCC(=O)N1CCC[C@H]1C(=O)Nc1ccc2c(c1)Oc1cc(NC(=O)[C@@H]3CCCN3C(=O)CN)ccc1C21OC(=O)c2ccccc21 [GP, (H-Gly--Pro)2 Rho .2TFA] | 13.41 |
| CC(C)[C@H](N)C(=O)N[C@@H](CO)C(=O)Nc1ccc2c(c1)Oc1cc(NC(=O)[C@H](CO)NC(=O)[C@@H](N)C(C)C)ccc1C21OC(=O)c2ccccc21 [VS, (H-L-Val--Ser)2 Rho 110 .2TFA] | 0.14 |

Here is the next item to consider.
Query: enzyme activity, Grans; subject: NCCCC[C@H](N)C(=O)Nc1ccc2c(c1)Oc1cc(NC(=O)[C@@H](N)CCCCN)ccc1C21OC(=O)c2ccccc21 [LYS, (H-L-Lys)2 Rho 110 .4TFA] 0.95

###

# Tested on: granulocytes
# test description: peptidase activity in leukemia and non-leukemia patients, granulocytes (Table 6C)
# Format: cell-based, human
# Design: unit not given here
# reported conditions: N193 normal
endpoint label: enzyme activity, Grans
Form rule: numeric answer, no unit written next to it.

Worked cases, answers included:
| molecule | enzyme activity, Grans |
| --- | --- |
| CC(C)[C@H](N)C(=O)N[C@@H](CO)C(=O)Nc1ccc2c(c1)Oc1cc(NC(=O)[C@H](CO)NC(=O)[C@@H](N)C(C)C)ccc1C21OC(=O)c2ccccc21 [VS, (H-L-Val--Ser)2 Rho 110 .2TFA] | 0.44 |
| NC(=O)CC[C@H](N)C(=O)N[C@@H](CO)C(=O)Nc1ccc2c(c1)Oc1cc(NC(=O)[C@H](CO)NC(=O)[C@@H](N)CCC(N)=O)ccc1C21OC(=O)c2ccccc21 [QS, (H-L-Gln--Ser)2 Rho 110 .2TFA] | 0.14 |

Request the reported enzyme activity, Grans associated with C[C@@H](O)[C@H](N)C(=O)N1CCC[C@H]1C(=O)Nc1ccc2c(c1)Oc1cc(NC(=O)[C@@H]3CCCN3C(=O)[C@@H](N)[C@@H](C)O)ccc1C21OC(=O)c2ccccc21 [TP, (H-L-Thr--Pro)2 Rho 110 .2TFA] 4.96

And what about the molecule C[C@H](N)C(=O)Nc1ccc2c(c1)Oc1cc(NC(=O)[C@H](C)N)ccc1C21OC(=O)c2ccccc21 [ALA, (Ala)2 Rho 110] ? 178.64

And the next one, NCC(=O)N1CCC[C@H]1C(=O)Nc1ccc2c(c1)Oc1cc(NC(=O)[C@@H]3CCCN3C(=O)CN)ccc1C21OC(=O)c2ccccc21 [GP, (H-Gly--Pro)2 Rho .2TFA] ? 8.87

###

Listed below: enzyme activity, Grans values for each entry.
# Test system: granulocytes
# test description: peptidase activity in leukemia and non-leukemia patients, granulocytes (Table 6C)
# Assay type: cell-based, human
# Set-up: unit not given here
# reported conditions: N197 normal
Give only the figure.

Known results for molecules:
| molecule | enzyme activity, Grans |
| --- | --- |
| C[C@@H](O)[C@H](N)C(=O)N1CCC[C@H]1C(=O)Nc1ccc2c(c1)Oc1cc(NC(=O)[C@@H]3CCCN3C(=O)[C@@H](N)[C@@H](C)O)ccc1C21OC(=O)c2ccccc21 [TP, (H-L-Thr--Pro)2 Rho 110 .2TFA] | 3.82 |
| C[C@H](N)C(=O)Nc1ccc2c(c1)Oc1cc(NC(=O)[C@H](C)N)ccc1C21OC(=O)c2ccccc21 | 188.20 |
| NCC(=O)N1CCC[C@H]1C(=O)Nc1ccc2c(c1)Oc1cc(NC(=O)[C@@H]3CCCN3C(=O)CN)ccc1C21OC(=O)c2ccccc21 [GP, (H-Gly--Pro)2 Rho .2TFA] | 15.85 |

Give its enzyme activity, Grans value. Item: NC(=O)CC[C@H](N)C(=O)N[C@@H](CO)C(=O)Nc1ccc2c(c1)Oc1cc(NC(=O)[C@H](CO)NC(=O)[C@@H](N)CCC(N)=O)ccc1C21OC(=O)c2ccccc21 [QS, (H-L-Gln--Ser)2 Rho 110 .2TFA] 0.24

Check CC(C)[C@H](N)C(=O)N[C@@H](CO)C(=O)Nc1ccc2c(c1)Oc1cc(NC(=O)[C@H](CO)NC(=O)[C@@H](N)C(C)C)ccc1C21OC(=O)c2ccccc21 [VS, (H-L-Val--Ser)2 Rho 110 .2TFA] too. 0.58

###

# Test system: granulocytes
# test description: aberrant enzyme activities in febrile children, granulocytes (Table 7)
# Assay type: cell-based, human
# reported conditions: P101 Fever -- Unknown Origin
endpoint label: aberrant enzyme activity, GRANS

Please report the recorded aberrant enzyme activity, GRANS for CC(C)C[C@H](N)C(=O)NCC(=O)Nc1ccc2c(c1)Oc1cc(NC(=O)CNC(=O)[C@@H](N)CC(C)C)ccc1C21OC(=O)c2ccccc21 [LG] . .smallcircle.

###

# Tested on: monocytes
# test description: aberrant enzyme activities in febrile children, monocytes (Table 7)
# Format: cell-based, human
# reported conditions: P88 Enteritis
endpoint label: aberrant enzyme activity, MONOS

| compound | aberrant enzyme activity, MONOS |
| --- | --- |
| C[C@H](N)C(=O)Nc1ccc2c(c1)Oc1cc(NC(=O)[C@H](C)N)ccc1C21OC(=O)c2ccccc21 | .smallcircle. |

Give monocytes aberrant enzyme activity, MONOS for O=C1OC2(c3ccc(OC4O[C@H](CO)[C@H](O)[C@H](O)[C@H]4O)cc3Oc3cc(OC4O[C@H](CO)[C@H](O)[C@H](O)[C@H]4O)ccc32)c2ccccc21 (stereo partly drawn) .smallcircle.
